conditions: 308.15 K; 101 kPa; Liquid; Vibrating tube method
Reported mass density values follow for various compounds
Measurement Name: mass density (kg/m3)

* CCCC(C)O (stereo unspecified) | 796.64
* CCCCC(C)O (stereo unspecified) | 802.06
* CC(C)O | 771.87
* CCC(C)O (stereo unspecified) | 793.57
* CCCCCC(C)O (stereo unspecified) | 805.01
* CCC(C)=O | 789.9

====

settings: 313.15 K; 101 kPa; Liquid; Capillary tube (Ostwald / Ubbelohde) method
Response field label takes true (1) when viscosity is strictly below 2 mPa·s and false (0) in all other cases.

- CC(C)O: true (1)
- CCCCC(C)O (stereo unspecified): false (0)
- CCC(C)O (stereo unspecified): true (1)
- CCC(C)=O: true (1)
- CCCCCC(C)O (stereo unspecified): false (0)

====

Reported viscosity values follow for various compounds
settings: 308.15 K; 101 kPa; Liquid; Capillary tube (Ostwald / Ubbelohde) method
Measurement Name: viscosity (mPa·s)

• CCCCC(C)O (stereo unspecified) [2-hexanol] = 2.819
• CCCC(C)O (stereo unspecified) [pentan-2-ol] = 2.335
• CCC(C)O (stereo unspecified) [butan-2-ol] = 2.153
• CCCCCC(C)O (stereo unspecified) [2-heptanol] = 3.478
• CC(C)O [propan-2-ol] = 1.563
• CCC(C)=O [butanone] = 0.352

====

details: 298.15 K; 101 kPa; Liquid; Vibrating tube method
Reported mass density values follow for various compounds
Measurement Name: mass density (kg/m3)

* CCCCC(C)O (stereo unspecified) [2-hexanol] | 810.14
* CCC(C)O (stereo unspecified) [butan-2-ol] | 802.7
* CCC(C)=O [butanone] | 799.48
* CCCC(C)O (stereo unspecified) [pentan-2-ol] | 805.41
* CC(C)O [propan-2-ol] | 781.09
* CCCCCC(C)O (stereo unspecified) [2-heptanol] | 813.18

====

settings: 303.15 K; 101 kPa; Liquid; Capillary tube (Ostwald / Ubbelohde) method
Measurement Name: viscosity (mPa·s)

• CCCCCC(C)O (stereo unspecified) = 4.152
• CC(C)O = 1.788
• CCC(C)=O = 0.368
• CCCC(C)O (stereo unspecified) = 2.801
• CCCCC(C)O (stereo unspecified) = 3.411
• CCC(C)O (stereo unspecified) = 2.597

====

conditions: 313.15 K; 101 kPa; Liquid; Vibrating tube method
Reported mass density values follow for various molecules
Measurement Name: mass density (kg/m3)

- CCC(C)O (stereo unspecified): 789.15
- CCCCCC(C)O (stereo unspecified): 801.14
- CCC(C)=O: 785.52
- CC(C)O: 767.37
- CCCCC(C)O (stereo unspecified): 797.96
- CCCC(C)O (stereo unspecified): 792.51

====

settings: 298.15 K; 101 kPa; Liquid; Capillary tube (Ostwald / Ubbelohde) method
Classification field: enter label 1 for viscosity values not below 3 mPa·s, label 0 for values below it.

* CCCCC(C)O (stereo unspecified) | label 1
* CC(C)O | label 0
* CCC(C)O (stereo unspecified) | label 1
* CCCCCC(C)O (stereo unspecified) | label 1
* CCCC(C)O (stereo unspecified) | label 1
* CCC(C)=O | label 0
